# run-description: orientating toxicity, mice, perorally
# particulars: mouse, in vivo, po, read-out: dose withstood without clinical symptoms and without fatalities

{"columns": ["compound", "NOAEL"],
 "data": [
  ["CC(C)NCC(O)CON=C1CO[C@H]2[C@@H]1OC[C@H]2O[N+](=O)[O-] (some centres unmarked) [Example 1]", "500 mg/kg"],
  ["CC(C)(C)NCC(O)CON=C1CO[C@H]2[C@@H]1OC[C@H]2O[N+](=O)[O-] (some centres unmarked) [Example 3]", "500 mg/kg"]
]}

====

# System: isolated aorta strips
# run-description: inhibition of potassium chloride-induced contractions on isolated aorta strips, rabbit
# Format: cell-based
# particulars: Oryctolagus cuniculus, read-out: ED50, inhibition of potassium chloride-induced contractions
pIC50: −log10 of the molar value.

{"columns": ["molecule", "pIC50"],
 "data": [
  ["CC(C)NCC(O)CON=C1CO[C@H]2[C@@H]1OC[C@H]2O[N+](=O)[O-] (stereo partly shown)", 5.23]
]}
